Measured inhibition, listed per entry for reference.
tgt: cAMP-dependent protein kinase catalytic subunit alpha (Homo sapiens)
condition details: at 1 µM

{"columns": ["smiles code", "inhibition"],
 "data": [
  ["Fc1ccc(-c2ncn(C3CCNCC3)c2-c2ccnc(Oc3ccccc3)n2)cc1", "43.6%"],
  ["COc1cccc(-n2ncc3c(N/N=C/c4ccncc4)ncnc32)c1", "4.25%"],
  ["COc1cc(C=NNc2ncnc3c2cnn3Cc2ccccc2)ccc1O", "5.93%"],
  ["COc1cccc(COc2cc(-n3cnc4ccccc43)sc2C(N)=O)c1", "0.86%"]
]}

----------
tgt: Tyrosine-protein kinase CSK (Homo sapiens) (UniProt P41240)
Sequence (P41240 2-450 limits assumed): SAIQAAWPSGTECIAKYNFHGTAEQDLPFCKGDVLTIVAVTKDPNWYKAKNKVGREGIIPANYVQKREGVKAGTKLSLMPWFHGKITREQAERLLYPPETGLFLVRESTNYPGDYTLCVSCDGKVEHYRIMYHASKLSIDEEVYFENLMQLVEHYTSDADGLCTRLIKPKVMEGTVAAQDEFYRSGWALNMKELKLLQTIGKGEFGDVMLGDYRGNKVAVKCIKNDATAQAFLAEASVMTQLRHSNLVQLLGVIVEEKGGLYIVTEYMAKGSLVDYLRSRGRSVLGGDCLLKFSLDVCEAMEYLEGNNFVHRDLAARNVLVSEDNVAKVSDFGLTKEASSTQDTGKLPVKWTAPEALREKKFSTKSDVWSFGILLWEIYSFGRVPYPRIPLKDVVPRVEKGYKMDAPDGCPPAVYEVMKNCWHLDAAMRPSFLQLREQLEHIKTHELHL
condition details: at 1 µM
endpoint label: inhibition

{"columns": ["smiles code", "endpoint label", "recorded value"],
 "data": [
  ["CCn1c(-c2nonc2N)nc2c(C#CCN)ncc(OCCCN)c21", "inhibition", "2.55%"],
  ["NS(=O)(=O)c1ccc(N/C=C2\\C(=O)Nc3ccc4ncsc4c32)cc1", "inhibition", "3.86%"],
  ["COc1cccc(-n2ncc3c(N/N=C/c4ccncc4)ncnc32)c1", "inhibition", "16.8%"]
]}

----------
tgt: RAC-beta serine/threonine-protein kinase (Homo sapiens)
condition details: at 0.1 µM
The following compounds are listed with their measured inhibition values.
endpoint label: inhibition (%)

{"columns": ["smiles code", "endpoint label", "recorded value"],
 "data": [
  ["Cc1cc(-c2ccco2)cc(C)c1/C=C/c1cncc(-c2nn[nH]n2)c1", "inhibition", -0.63],
  ["CCn1c(-c2nonc2N)nc2c(C#CCN)ncc(OCCCN)c21", "inhibition", -0.31],
  ["COc1cc2c(cc1Nc1nc(Nc3ccsc3C(N)=O)c3cc[nH]c3n1)N(C(=O)CN(C)C)CCC2", "inhibition", 2.64],
  ["NS(=O)(=O)c1ccc(-c2ccc3c(NC(=O)C4CC4)n[nH]c3c2)cc1", "inhibition", 1.38],
  ["NS(=O)(=O)c1ccc(N/C=C2\\C(=O)Nc3ccc4ncsc4c32)cc1", "inhibition", 2.08],
  ["Nc1nonc1-c1nc2cnccc2n1C1CCCCC1", "inhibition", 1.24],
  ["COc1cc(C=NNc2ncnc3c2cnn3Cc2ccccc2)ccc1O", "inhibition", -3.56],
  ["CCn1c(-c2nonc2N)nc2c(C#CC(C)(C)O)ncc(OCC3CCNCC3)c21", "inhibition", 74.2],
  ["COc1cccc(-n2ncc3c(N/N=C/c4ccncc4)ncnc32)c1", "inhibition", 1.42]
]}

----------
The entries below are paired with their reported inhibition.
tgt: Mitogen-activated protein kinase 1 (Homo sapiens) (UniProt P28482)
Sequence (P28482 whole entry): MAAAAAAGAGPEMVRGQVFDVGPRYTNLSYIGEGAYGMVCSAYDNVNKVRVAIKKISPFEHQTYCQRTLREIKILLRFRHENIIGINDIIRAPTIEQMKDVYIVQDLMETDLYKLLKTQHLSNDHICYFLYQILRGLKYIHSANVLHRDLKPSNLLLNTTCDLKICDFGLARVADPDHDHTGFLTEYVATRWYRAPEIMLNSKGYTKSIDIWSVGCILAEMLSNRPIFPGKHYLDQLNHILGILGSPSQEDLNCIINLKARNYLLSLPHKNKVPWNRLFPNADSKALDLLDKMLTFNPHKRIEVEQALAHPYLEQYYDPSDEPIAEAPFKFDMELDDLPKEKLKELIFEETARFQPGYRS
condition details: at 1 µM
endpoint label: inhibition (%)

{"columns": ["smiles code", "endpoint label", "recorded value"],
 "data": [
  ["COc1cc(C=NNc2ncnc3c2cnn3Cc2ccccc2)ccc1O", "inhibition", -6.99],
  ["CCn1c(-c2nonc2N)nc2c(C#CCN)ncc(OCCCN)c21", "inhibition", -4.85],
  ["COc1cccc(-n2ncc3c(N/N=C/c4ccncc4)ncnc32)c1", "inhibition", 7.16],
  ["NS(=O)(=O)c1ccc(N/C=C2\\C(=O)Nc3ccc4ncsc4c32)cc1", "inhibition", 31.1],
  ["NC(=O)c1sc(-n2cnc3cc(C(F)(F)F)ccc32)cc1OCc1ccccc1Br", "inhibition", 2.13],
  ["CCn1c(-c2nonc2N)nc2c(C#CC(C)(C)O)nc(O[C@@H](CN)c3ccccc3)cc21", "inhibition", 5.15],
  ["Fc1ccc(-c2ncn(C3CCNCC3)c2-c2ccnc(Oc3ccccc3)n2)cc1", "inhibition", 6.09]
]}
